Recorded values, source paper PMC11784026.

assay: Plasma pharmacokinetics after multiple ascending doses (MAD), phase 1; type: in vivo, human (healthy adult participants); details: human, plasma, iv, 150 mg, First q6h dose (day 3), 7-day MAD 150 mg q6h × 7, n = 5, arithmetic mean ± SD
Where a SMILES comes first, the peptide text is derived from it. Bridges are numbered along the chain shown (N, C = ends). [ ]: non-standard residue; d: D form. The star is where a group is joined. X1 = O=C(c1ccc(Cl)cc1Cl)*; Dab = NCC[C@H](N)C(=O)O; Abu = CC[C@H](N)C(=O)O; Dap = NC[C@H](N)C(=O)O
Metric: clearance (mL/min)

{"columns": ["Compound", "Metric", "Test Value"],
 "data": [
  ["CC[C@@H]1NC(=O)[C@@H](CC(C)C)NC(=O)[C@H](CCN)NC(=O)[C@@H](NC(=O)[C@H](CN)NC(=O)[C@@H](NC(=O)[C@H](CCN)NC(=O)c2ccc(Cl)cc2Cl)[C@@H](C)O)CCNC(=O)[C@H]([C@@H](C)O)NC(=O)[C@H](CCN)NC(=O)[C@H](CCN)NC1=O [BRII-693] (X1-[Dab]T[Dap][Dab][Dab][dL][Abu][Dab][Dab]T; lactam 4-C; N-terminus assumed)", "clearance", 82.3]
]}

###

experiment: Plasma pharmacokinetics after single ascending doses (SAD), phase 1; type: in vivo, human (healthy adult participants); settings: human, single 1-h IV infusion 200 mg, plasma, apparent terminal half-life, n = 6, arithmetic mean ± SD
Where a SMILES comes first, the peptide text is derived from it. Bridges are numbered along the chain shown (N, C = ends). [ ]: non-standard residue; d: D form. The star is where a group is joined. X1 = O=C(c1ccc(Cl)cc1Cl)*; Dab = NCC[C@H](N)C(=O)O; Abu = CC[C@H](N)C(=O)O; Dap = NC[C@H](N)C(=O)O
Metric: half-life

{"columns": ["Compound", "Test Value"],
 "data": [
  ["CC[C@@H]1NC(=O)[C@@H](CC(C)C)NC(=O)[C@H](CCN)NC(=O)[C@@H](NC(=O)[C@H](CN)NC(=O)[C@@H](NC(=O)[C@H](CCN)NC(=O)c2ccc(Cl)cc2Cl)[C@@H](C)O)CCNC(=O)[C@H]([C@@H](C)O)NC(=O)[C@H](CCN)NC(=O)[C@H](CCN)NC1=O [BRII-693] (X1-[Dab]T[Dap][Dab][Dab][dL][Abu][Dab][Dab]T; lactam 4-C; N-terminus assumed)", "3.83 h"]
]}

###

assay: Plasma pharmacokinetics after multiple ascending doses (MAD), phase 1; assay type: in vivo, human (healthy adult participants); conditions: human, plasma, iv, 150 mg, First q6h dose (day 3), 7-day MAD 150 mg q6h × 7, 1-h IV infusion, plasma, n = 5, arithmetic mean ± SD
Where a SMILES comes first, the peptide text is derived from it. Bridges are numbered along the chain shown (N, C = ends). [ ]: non-standard residue; d: D form. The star is where a group is joined. X1 = O=C(c1ccc(Cl)cc1Cl)*; Dab = NCC[C@H](N)C(=O)O; Abu = CC[C@H](N)C(=O)O; Dap = NC[C@H](N)C(=O)O

{"columns": ["Compound", "Unit Abbreviation", "Cmax"],
 "data": [
  ["CC[C@@H]1NC(=O)[C@@H](CC(C)C)NC(=O)[C@H](CCN)NC(=O)[C@@H](NC(=O)[C@H](CN)NC(=O)[C@@H](NC(=O)[C@H](CCN)NC(=O)c2ccc(Cl)cc2Cl)[C@@H](C)O)CCNC(=O)[C@H]([C@@H](C)O)NC(=O)[C@H](CCN)NC(=O)[C@H](CCN)NC1=O [BRII-693] (X1-[Dab]T[Dap][Dab][Dab][dL][Abu][Dab][Dab]T; lactam 4-C; N-terminus assumed)", "ng/mL", 8690]
]}
